- System: MPNST complex spheroid with HUVEC/MSC, growth, % test/control
- PROTOCOL_DETAILS: Anticancer human tumor MPNST cell line growth inhibition [Asc];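 note: compounds left on spheroids for seven days before reading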
- APPLIED_CONDITIONS: second compound 0.3 µM; first compound 1 µM; stronger effect = lower value
READOUT_LABEL: viability, T/C (%)

[[record]]
compound = "O=C(c1cc(Cc2n[nH]c(=O)c3ccccc23)ccc1F)N1CCN(C(=O)C2CC2)CC1 + CCN1C(C(=O)NC23CCC(C(=O)O)(CC2)CC3)C(c2cccc(Cl)c2F)C2(C(=O)Nc3cc(Cl)ccc32)C12CCCCC2"
display_unit = "%"
result_value = 93.1

[[record]]
compound = "C=CC(=O)N1CCN(c2nc(=O)n(-c3c(C)ccnc3C(C)C)c3nc(-c4c(O)cccc4F)c(F)cc23)C(C)C1 (stereo unspecified) + CCN1C(C(=O)NC23CCC(C(=O)O)(CC2)CC3)C(c2cccc(Cl)c2F)C2(C(=O)Nc3cc(Cl)ccc32)C12CCCCC2"
display_unit = "%"
result_value = 94.5

[[record]]
compound = "CCN1CCN(Cc2ccc(Nc3ncc(F)c(-c4cc(F)c5nc(C)n(C(C)C)c5c4)n3)nc2)CC1 + CCN1C(C(=O)NC23CCC(C(=O)O)(CC2)CC3)C(c2cccc(Cl)c2F)C2(C(=O)Nc3cc(Cl)ccc32)C12CCCCC2"
display_unit = "%"
result_value = 90.1

[[record]]
compound = "CNC(C)C(=O)NC1CN(S(=O)(=O)c2cccc(S(=O)(=O)N3CCC4CCC(C(=O)NC(c5ccccc5)c5ccccc5)N4C(=O)C(NC(=O)C(C)NC)C3)c2)CCC2CCC(C(=O)NC(c3ccccc3)c3ccccc3)N2C1=O (stereo unspecified) + CCN1C(C(=O)NC23CCC(C(=O)O)(CC2)CC3)C(c2cccc(Cl)c2F)C2(C(=O)Nc3cc(Cl)ccc32)C12CCCCC2"
display_unit = "%"
result_value = 122

[[record]]
compound = "C=C(F)C(=O)N1CCN(c2nc(OCC3CCCN3C)nc3c2CCN(c2cccc4cccc(Cl)c24)C3)CC1CC#N (stereo unspecified) + CCN1C(C(=O)NC23CCC(C(=O)O)(CC2)CC3)C(c2cccc(Cl)c2F)C2(C(=O)Nc3cc(Cl)ccc32)C12CCCCC2"
display_unit = "%"
result_value = 63.6

[[record]]
compound = "COc1c(OCCCN2CCOCC2)ccc2c3n(c(=NC(=O)c4cnc(N)nc4)nc12)CCN3 + CCN1C(C(=O)NC23CCC(C(=O)O)(CC2)CC3)C(c2cccc(Cl)c2F)C2(C(=O)Nc3cc(Cl)ccc32)C12CCCCC2"
display_unit = "%"
result_value = 17.4


----------
- System: MPNST complex spheroid with HUVEC/MSC, growth, % test/control
- PROTOCOL_DETAILS: Anticancer human tumor MPNST cell line growth inhibition [Asc];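 note: compounds left on spheroids for seven days before reading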
- APPLIED_CONDITIONS: second compound 0.1 µM; first compound 0.316 µM; stronger effect = lower value
READOUT_LABEL: viability, T/C (%)

[[record]]
compound = "C=CC(=O)N1CCN(c2nc(=O)n(-c3c(C)ccnc3C(C)C)c3nc(-c4c(O)cccc4F)c(F)cc23)C(C)C1 (stereo unspecified) + Cc1c(S(C)(=O)=O)c(-c2cc(F)cc(N3CCN(c4ccc(NS(=O)(=O)c5ccc(NC(CCN6CCC(C(=O)OCCCP(=O)(O)O)CC6)CSc6ccccc6)c(S(=O)(=O)C(F)(F)F)c5)cc4)CC3)c2)c(-c2ccc(Cl)cc2)n1C(C)C"
result_value = 84.2

[[record]]
compound = "COc1c(OCCCN2CCOCC2)ccc2c3n(c(=NC(=O)c4cnc(N)nc4)nc12)CCN3 + Cc1c(S(C)(=O)=O)c(-c2cc(F)cc(N3CCN(c4ccc(NS(=O)(=O)c5ccc(NC(CCN6CCC(C(=O)OCCCP(=O)(O)O)CC6)CSc6ccccc6)c(S(=O)(=O)C(F)(F)F)c5)cc4)CC3)c2)c(-c2ccc(Cl)cc2)n1C(C)C"
result_value = 30.4

[[record]]
compound = "CCN1CCN(Cc2ccc(Nc3ncc(F)c(-c4cc(F)c5nc(C)n(C(C)C)c5c4)n3)nc2)CC1 + Cc1c(S(C)(=O)=O)c(-c2cc(F)cc(N3CCN(c4ccc(NS(=O)(=O)c5ccc(NC(CCN6CCC(C(=O)OCCCP(=O)(O)O)CC6)CSc6ccccc6)c(S(=O)(=O)C(F)(F)F)c5)cc4)CC3)c2)c(-c2ccc(Cl)cc2)n1C(C)C"
result_value = 55.8

[[record]]
compound = "C=C(F)C(=O)N1CCN(c2nc(OCC3CCCN3C)nc3c2CCN(c2cccc4cccc(Cl)c24)C3)CC1CC#N (stereo unspecified) + CNC(C)C(=O)NC1CN(S(=O)(=O)c2cccc(S(=O)(=O)N3CCC4CCC(C(=O)NC(c5ccccc5)c5ccccc5)N4C(=O)C(NC(=O)C(C)NC)C3)c2)CCC2CCC(C(=O)NC(c3ccccc3)c3ccccc3)N2C1=O"
result_value = 88.4

[[record]]
compound = "C#Cc1c(F)ccc2cc(O)cc(-c3ncc4c(N5CC6CCC(C5)N6)nc(OCC56CCCN5CC(F)C6)nc4c3F)c12 (stereo unspecified) + Cc1c(S(C)(=O)=O)c(-c2cc(F)cc(N3CCN(c4ccc(NS(=O)(=O)c5ccc(NC(CCN6CCC(C(=O)OCCCP(=O)(O)O)CC6)CSc6ccccc6)c(S(=O)(=O)C(F)(F)F)c5)cc4)CC3)c2)c(-c2ccc(Cl)cc2)n1C(C)C"
result_value = 92.9

[[record]]
compound = "C=CC(=O)N1CCN(c2nc(=O)n(-c3c(C)ccnc3C(C)C)c3nc(-c4c(O)cccc4F)c(F)cc23)C(C)C1 (stereo unspecified) + CNC(C)C(=O)NC1CN(S(=O)(=O)c2cccc(S(=O)(=O)N3CCC4CCC(C(=O)NC(c5ccccc5)c5ccccc5)N4C(=O)C(NC(=O)C(C)NC)C3)c2)CCC2CCC(C(=O)NC(c3ccccc3)c3ccccc3)N2C1=O"
result_value = 117

